B1: Transcription intermediary factor 1-beta, residues 620 to 671; numbered along this chain, Q13263 (parent)
chain: TLDDSATICRVCQKPGDLVMCNQCEFCFHLDCHLPALQDVPGEEWSCSLCHV

# Variants of: B1
# test: abundance fitness (aPCA) (normalised: wild type 0, dead -1); higher = more abundant; growth selection in yeast, the domain comes from the species named
# particulars: Homo sapiens
// values below are reported abundance fitness

# sequence.change, abundance fitness
data = [
    ("Q38I", 0.079),
    ("P35N", -0.222),
    ("Q23S", -0.089),
    ("L18M", -0.599),
    ("C47Q", -0.636),
    ("A36G", -0.116),
    ("C9P", -0.324),
    ("L30T", -0.292),
    ("D31I", -0.501),
    ("L49E", 0.389),
    ("V11L", 0.009),
    ("H33A", -0.013),
    ("L37V", -0.094),
    ("I8Y", 0.077),
    ("S46V", 0.059),
    ("H33P", -0.344),
    ("P35M", -0.291),
    ("D3R", -0.294),
    ("V40I", -0.401),
    ("T7V", -0.066),
    ("K14F", -0.424),
    ("Q38C", -0.401),
    ("E25N", -0.822),
    ("S5T", -0.193),
    ("Q38P", -0.437),
    ("C24R", -0.685),
    ("P41A", -0.368),
    ("S48D", -0.242),
    ("L2M", 0.021),
    ("Q13R", -0.025),
    ("H33T", -0.235),
    ("I8F", 0.087),
    ("P41S", -0.374),
    ("S48M", 0.386),
    ("C24G", -0.541),
    ("E44V", -0.217),
    ("H51L", -0.063),
    ("C47D", -0.456),
    ("C24N", -1.19),
    ("N22A", -0.232),
    ("V40Y", -0.121),
    ("Q13D", 0.144),
    ("K14N", -0.408),
    ("M20A", -0.312),
    ("T7D", 0.024),
    ("E25D", -0.3),
]
